# System: Hepatitis C virus
# method.notes: Antiviral activity against HCV assessed as inhibition of HCV RNA replication in OR6 cells after 72 hrs by luciferase reporter assay
# Assay type: functional, organism-based, Hepacivirus hominis
# test.parameters: OR6, 72 h
pEC50: −log10 of the molar value.
measured.endpoint: pEC50

Below are worked cases with known answers.
{"sample.smiles": "CC/C=C\\C/C=C\\C/C=C\\C/C=C\\C/C=C\\C/C=C\\CCC(=O)O", "measured.endpoint": "pEC50", "reported.value": 4.43}
{"sample.smiles": "CCCCC/C=C\\C/C=C\\C/C=C\\C/C=C\\CCCC(=O)O", "measured.endpoint": "pEC50", "reported.value": 4.66}

[1] C=C1CC[C@H](O)C/C1=C/C=C1\CCC[C@]2(C)[C@@H]([C@H](C)/C=C/[C@H](C)C(C)C)CC[C@@H]12
[2] CC/C=C\C/C=C\C/C=C\C/C=C\C/C=C\CCCC(=O)O
[3] CC1=C(/C=C/C(C)=C/C=C/C(C)=C/C=C/C=C(C)/C=C/C=C(C)/C=C/C2=C(C)CCCC2(C)C)C(C)(C)CCC1
[4] CCCCC/C=C\C/C=C\CCCCCCCC(=O)O
### Prompt Parameters: sort_field (pEC50), sort_dir (desc). To answer, write out the labels according to the requested order.
### Response 1, 3, 4, 2

Data origin: ChEMBL document CHEMBL1144469
